test system: Calu-6 (Non-Small Cell Lung Carcinoma); assay: Bliss excess, mean over the matrix (fraction); higher = more synergy
endpoint-label: Bliss excess
Please state the value as a number alone, without comment.

INSERT INTO results (molecule, endpoint_label, measured_value) VALUES
  ('Cc1cc2ncnn2cc1Nc1ncc2c(n1)n(C1CCOCC1)c(=O)n2C [AZD7648] + C=CCn1c(=O)c2cnc(Nc3ccc(N4CCN(C)CC4)cc3)nc2n1-c1cccc(C(C)(C)O)n1 [AZD1775] (first compound max 10 µM, partner max 1 µM)', 'Bliss excess', -0.0282);

Consider the record given below.
Suppose we examine the molecule Cn1cnc2c(F)c(Nc3ccc(Br)cc3Cl)c(C(=O)NOCCO)cc21 [Selumetinib] + C[C@@H]1COCCN1C2=NC(=NC(=C2)C3(CC3)[S@](=N)(=O)C)C4=C5C=CNC5=NC=C4 [AZD6738] (first compound max 10 µM, 7x7, partner max 10 µM) ; what Bliss excess value has been reported?
-0.032

---

Form field: Bliss excess (one value per entry).
system: LOUCY (T-Lymphoblastic Leukemia); test: Bliss excess, mean over the matrix (fraction); higher = more synergy
Please state the value as a number alone, without comment.

INSERT INTO results (compound, endpoint_label, measured_value) VALUES
  ('NC1(C(=O)N[C@@H](CCO)c2ccc(Cl)cc2)CCN(c2ncnc3[nH]ccc23)CC1 [Capivasertib] + Cn1cnc2c(F)c(Nc3ccc(Br)cc3Cl)c(C(=O)NOCCO)cc21 [Selumetinib] (first compound max 10 µM, 7x7, partner max 10 µM)', 'Bliss excess', 0.0806),
  ('N#Cc1cnc(Nc2cc(NC[C@H]3CNCCO3)c(C(F)(F)F)cn2)cn1 [SRA737] + C=CCn1c(=O)c2cnc(Nc3ccc(N4CCN(C)CC4)cc3)nc2n1-c1cccc(C(C)(C)O)n1 [AZD1775] (first compound max 10 µM, partner max 1 µM)', 'Bliss excess', 0.138),
  ('NC1(C(=O)N[C@@H](CCO)c2ccc(Cl)cc2)CCN(c2ncnc3[nH]ccc23)CC1 [Capivasertib] + CCN(CCO)CCCOc1ccc2c(Nc3cc(CC(=O)Nc4cccc(F)c4)[nH]n3)ncnc2c1 [AZD2811] (first compound max 10 µM, 7x7, partner max 1 µM)', 'Bliss excess', -0.104);

Notebook: pull reported Bliss excess for LOUCY (T-Lymphoblastic Leukemia), entry Cc1cc2ncnn2cc1Nc1ncc2c(n1)n(C1CCOCC1)c(=O)n2C [AZD7648] + O=C(c1cc(Cc2n[nH]c(=O)c3ccccc23)ccc1F)N1CCN(C(=O)C2CC2)CC1 [Olaparib] (first compound max 10 µM, 7x7, partner max 10 µM)
-0.0388

---

system: BALL-1 (B-Lymphoblastic Leukemia); experiment: combination Emax (second highest fraction inhibited in the dose matrix, 72 h); higher = more inhibition; extreme values may be limits of the assay
Form field: combination Emax (one value per entry).
Please state the value as a number alone, without comment.

Suppose we examine the molecule CN(CCO)CC[C@H](CSc1ccccc1)Nc1ccc(S(=O)(=O)NC(=O)c2ccc(N3CCC([C@@H](O)c4ccccc4-c4ccc(Cl)cc4)CC3)cc2)cc1S(=O)(=O)C(F)(F)F [AZD4320] + C=CCn1c(=O)c2cnc(Nc3ccc(N4CCN(C)CC4)cc3)nc2n1-c1cccc(C(C)(C)O)n1 [AZD1775] (first compound max 1 µM, partner max 1 µM) ; what combination Emax value has been reported?
1

Proceed to Cc1cc2ncnn2cc1Nc1ncc2c(n1)n(C1CCOCC1)c(=O)n2C [AZD7648] + CN(C)CCCOc1ccc(-c2ccc3ncc4c(c3c2)n(C2CCOCC2)c(=O)n4C)cn1 [AZD0156] (first compound max 10 µM, 7x7, partner max 1 µM)
0.295

Proceed to COc1nnc2ccc(N3CCC(c4ccc(OCCN5CCN(C)C(=O)[C@H]5C)cc4)CC3)nn12 [AZD5153] + C[C@@H]1COCCN1C2=NC(=NC(=C2)C3(CC3)[S@](=N)(=O)C)C4=C5C=CNC5=NC=C4 [AZD6738] (first compound max 1 µM, 7x7, partner max 10 µM)
1

Hey, just so you know, these numbers are from the supplement of paper PMC11061612.
